# System: NIK;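 note: KINOMEscan scanMAX binding as percent activity remaining versus control; lower means stronger binding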
# Construct: gene MAP3K14
# test conditions: Compound Concentration (nM):1000
Reported Percent Control values are given for each entry in this list.
Give your result in % as a bare value.

{"compound": "O=C(Nc1n[nH]c2nc(-c3ccc(O)cc3)c(Br)cc12)C1CC1", "measurement unit": "%", "Percent Control": 100}
{"compound": "CC(C)COC(=O)c1ccc2c(c1)/C(=C/Nc1ccc(S(N)(=O)=O)cc1)C(=O)N2 [GW416981X]", "measurement unit": "%", "Percent Control": 95}
{"compound": "COC(=O)Nc1nc2ccc(Oc3ccc(NC(=O)Nc4cc(C(F)(F)F)ccc4F)cc3)cc2s1.Cl [GW693917A]", "measurement unit": "%", "Percent Control": 80}
{"compound": "COc1cc2ncn(-c3cc(O[C@H](C)c4ccccc4Cl)c(C(N)=O)s3)c2cc1OC [GSK237701A]", "measurement unit": "%", "Percent Control": 100}
{"compound": "COc1cc(N2CCN(C(C)C)CC2)ccc1Nc1nc(Nc2ccc(F)cc2C(=O)NC[C@@H](O)CO)c2cc[nH]c2n1 [GSK1392956A]", "measurement unit": "%", "Percent Control": 100}
{"compound": "Cl.O=C(Nc1ccc(Oc2ccc3[nH]c(NC(=O)c4ccccc4)nc3c2)cc1)Nc1cc(C(F)(F)F)ccc1F [GW709042A]", "measurement unit": "%", "Percent Control": 100}

// query Percent Control value for entry CN1CCN(C(=O)c2ccc(NC(=O)Nc3ccc(N(C)c4ccnc(Nc5ccc(CS(C)(=O)=O)cc5)n4)cc3)cc2)CC1.Cl [GW830263A] 100

// query Percent Control value for entry COc1ccc2[nH]c3c4[nH]c5ccc(OC)cc5c4c4c(c3c2c1)C(=O)NC4=O [GW296115X] 20
